# target-or-test-system: UniProt Q96P20
# Sequence (Q96P20 whole entry): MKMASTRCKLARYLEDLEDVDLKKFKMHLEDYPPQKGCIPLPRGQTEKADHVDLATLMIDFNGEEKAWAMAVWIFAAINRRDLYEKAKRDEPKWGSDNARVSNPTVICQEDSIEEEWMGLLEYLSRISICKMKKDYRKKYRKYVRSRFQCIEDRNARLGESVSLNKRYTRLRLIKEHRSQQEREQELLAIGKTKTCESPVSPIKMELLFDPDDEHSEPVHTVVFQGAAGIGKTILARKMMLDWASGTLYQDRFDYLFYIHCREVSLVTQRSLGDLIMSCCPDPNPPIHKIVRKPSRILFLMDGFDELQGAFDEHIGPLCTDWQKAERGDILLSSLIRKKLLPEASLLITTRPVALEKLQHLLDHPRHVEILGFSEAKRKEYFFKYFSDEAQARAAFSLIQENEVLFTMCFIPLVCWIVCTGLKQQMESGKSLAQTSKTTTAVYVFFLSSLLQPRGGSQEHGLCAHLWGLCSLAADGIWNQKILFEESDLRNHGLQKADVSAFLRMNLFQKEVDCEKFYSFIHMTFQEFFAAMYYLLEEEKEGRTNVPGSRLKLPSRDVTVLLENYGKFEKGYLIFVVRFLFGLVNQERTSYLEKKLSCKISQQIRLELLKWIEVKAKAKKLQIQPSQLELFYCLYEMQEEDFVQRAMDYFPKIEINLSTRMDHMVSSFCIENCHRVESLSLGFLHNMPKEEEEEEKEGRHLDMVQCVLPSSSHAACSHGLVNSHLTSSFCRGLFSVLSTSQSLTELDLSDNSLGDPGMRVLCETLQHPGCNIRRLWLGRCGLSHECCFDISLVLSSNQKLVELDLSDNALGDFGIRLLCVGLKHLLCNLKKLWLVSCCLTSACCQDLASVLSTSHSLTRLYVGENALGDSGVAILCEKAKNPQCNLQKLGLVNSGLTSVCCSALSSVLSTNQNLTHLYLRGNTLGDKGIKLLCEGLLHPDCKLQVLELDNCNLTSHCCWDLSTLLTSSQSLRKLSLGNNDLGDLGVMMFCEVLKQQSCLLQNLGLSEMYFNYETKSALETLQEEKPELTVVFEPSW
# assay-name: Human whole blood IL-1β release assay
# Type: cell-based
# Parameters: Human whole blood in Li-heparin tubes was obtained from healthy donors; from tissue; host or cells: human whole blood from healthy donors
# run-parameters: LPS 1 μg/ml, nigericin 10 μM, IL-1β by AlphaLisa
pIC50: −log10 of the molar value.

- molecule: "CCN1CCC2CCN(c3ccc(-c4c(C)cc(C#N)cc4O)nn3)C2C1 (single isomer, unassigned)"
  target-or-test-system: "UniProt Q96P20"
  pIC50: 7.83
- molecule: "CCN1CCC[C@@H](Nc2cc(C(F)(F)F)c(-c3ccc(C#N)cc3O)nn2)C1"
  target-or-test-system: "UniProt Q96P20"
  pIC50: 7.29
- molecule: "CCN1CCC[C@@H](Nc2cc(C)c(-c3ccc(C#N)cc3O)nn2)C1"
  target-or-test-system: "UniProt Q96P20"
  pIC50: 8.49
